assay: Hygroscopicity test; assay type: physicochemical; settings: 25° C.±1° C., RH 80%±2%, 24 h
MEASURED QUANTITY: Hygroscopicity (percent of weight increase)

LINE NOTATION	RESULT
CCOc1nc2cccc(C(=O)[O-])c2n1Cc1ccc(-c2ccccc2-c2noc(=O)[nH]2)cc1.C[N+](C)(C)CCO	10.51%
CCOc1nc2cccc(C(=O)O)c2n1Cc1ccc(-c2ccccc2-c2noc(=O)[nH]2)cc1.NCCO	5.66%
CCOc1nc2cccc(C(=O)O)c2n1Cc1ccc(-c2ccccc2-c2noc(=O)[nH]2)cc1.CCOc1nc2cccc(C(=O)[O-])c2n1Cc1ccc(-c2ccccc2-c2noc(=O)[nH]2)cc1.C[N+](C)(C)CCO	0.02%
CCOc1nc2cccc(C(=O)O)c2n1Cc1ccc(-c2ccccc2-c2noc(=O)[nH]2)cc1.CCOc1nc2cccc(C(=O)O)c2n1Cc1ccc(-c2ccccc2-c2noc(=O)[nH]2)cc1.NCCO	0.08%
